# assay-target: EGFR (form in the assay not stated) (human, UniProt P00533 25-645, limits assumed)
# assay-protocol: ELISA, NEM conjugate 100 nM
Rule: binding ratio vs parent P54AR4-83v2 under 1 ratio gives NOT MET, otherwise MET.

Known results for binders:
binder	answer-label
P54AR4-83v2 N82C, NEM conjugate (designed binder, NEM on Cys 82, His-tagged) LPAPKNLVVSEVTEDSARLSWDDPWAFYESFLIQYQESEKVGEAIVLTVPGSERSYDLTGLKPGTEYTVSIYGVHNVYKDTCMRGLPLSAIFTT	NOT MET
P54AR4-83v2 K5C, NEM conjugate (designed binder, NEM on Cys 5, His-tagged) LPAPCNLVVSEVTEDSARLSWDDPWAFYESFLIQYQESEKVGEAIVLTVPGSERSYDLTGLKPGTEYTVSIYGVHNVYKDTNMRGLPLSAIFTT	MET
P54AR4-83v2 Q34C, NEM conjugate (designed binder, NEM on Cys 34, His-tagged) LPAPKNLVVSEVTEDSARLSWDDPWAFYESFLICYQESEKVGEAIVLTVPGSERSYDLTGLKPGTEYTVSIYGVHNVYKDTNMRGLPLSAIFTT	MET
P54AR4-83v2 S38C, NEM conjugate (designed binder, NEM on Cys 38, His-tagged) LPAPKNLVVSEVTEDSARLSWDDPWAFYESFLIQYQECEKVGEAIVLTVPGSERSYDLTGLKPGTEYTVSIYGVHNVYKDTNMRGLPLSAIFTT	NOT MET
P54AR4-83v2 A90C, NEM conjugate (designed binder, NEM on Cys 90, His-tagged) LPAPKNLVVSEVTEDSARLSWDDPWAFYESFLIQYQESEKVGEAIVLTVPGSERSYDLTGLKPGTEYTVSIYGVHNVYKDTNMRGLPLSCIFTT	MET
P54AR4-83v2 E43C, NEM conjugate (designed binder, NEM on Cys 43, His-tagged) LPAPKNLVVSEVTEDSARLSWDDPWAFYESFLIQYQESEKVGCAIVLTVPGSERSYDLTGLKPGTEYTVSIYGVHNVYKDTNMRGLPLSAIFTT	MET
P54AR4-83v2 V9C, NEM conjugate (designed binder, NEM on Cys 9, His-tagged) LPAPKNLVCSEVTEDSARLSWDDPWAFYESFLIQYQESEKVGEAIVLTVPGSERSYDLTGLKPGTEYTVSIYGVHNVYKDTNMRGLPLSAIFTT	MET
P54AR4-83v2 L86C, NEM conjugate (designed binder, NEM on Cys 86, His-tagged) LPAPKNLVVSEVTEDSARLSWDDPWAFYESFLIQYQESEKVGEAIVLTVPGSERSYDLTGLKPGTEYTVSIYGVHNVYKDTNMRGCPLSAIFTT	NOT MET

Answer whether binding ratio vs parent P54AR4-83v2 of P54AR4-83v2 K40C, NEM conjugate (designed binder, NEM on Cys 40, His-tagged) LPAPKNLVVSEVTEDSARLSWDDPWAFYESFLIQYQESECVGEAIVLTVPGSERSYDLTGLKPGTEYTVSIYGVHNVYKDTNMRGLPLSAIFTT is greater than or equal to 1 ratio.
NOT MET

Answer whether binding ratio vs parent P54AR4-83v2 of P54AR4-83v2 V77C, NEM conjugate (designed binder, NEM on Cys 77, His-tagged) LPAPKNLVVSEVTEDSARLSWDDPWAFYESFLIQYQESEKVGEAIVLTVPGSERSYDLTGLKPGTEYTVSIYGVHNCYKDTNMRGLPLSAIFTT is greater than or equal to 1 ratio.
NOT MET

Answer whether binding ratio vs parent P54AR4-83v2 of P54AR4-83v2 D23C, NEM conjugate (designed binder, NEM on Cys 23, His-tagged) LPAPKNLVVSEVTEDSARLSWDCPWAFYESFLIQYQESEKVGEAIVLTVPGSERSYDLTGLKPGTEYTVSIYGVHNVYKDTNMRGLPLSAIFTT is greater than or equal to 1 ratio.
NOT MET

Answer whether binding ratio vs parent P54AR4-83v2 of P54AR4-83v2 E29C, NEM conjugate (designed binder, NEM on Cys 29, His-tagged) LPAPKNLVVSEVTEDSARLSWDDPWAFYCSFLIQYQESEKVGEAIVLTVPGSERSYDLTGLKPGTEYTVSIYGVHNVYKDTNMRGLPLSAIFTT is greater than or equal to 1 ratio.
MET

Answer whether binding ratio vs parent P54AR4-83v2 of P54AR4-83v2 V8C, NEM conjugate (designed binder, NEM on Cys 8, His-tagged) LPAPKNLCVSEVTEDSARLSWDDPWAFYESFLIQYQESEKVGEAIVLTVPGSERSYDLTGLKPGTEYTVSIYGVHNVYKDTNMRGLPLSAIFTT is greater than or equal to 1 ratio.
MET

FYI, the data here is from patent US20170362301A1.
